# target system: Glucocorticoid receptor (Homo sapiens) (UniProt P04150)
# Sequence (P04150 whole entry, looked up): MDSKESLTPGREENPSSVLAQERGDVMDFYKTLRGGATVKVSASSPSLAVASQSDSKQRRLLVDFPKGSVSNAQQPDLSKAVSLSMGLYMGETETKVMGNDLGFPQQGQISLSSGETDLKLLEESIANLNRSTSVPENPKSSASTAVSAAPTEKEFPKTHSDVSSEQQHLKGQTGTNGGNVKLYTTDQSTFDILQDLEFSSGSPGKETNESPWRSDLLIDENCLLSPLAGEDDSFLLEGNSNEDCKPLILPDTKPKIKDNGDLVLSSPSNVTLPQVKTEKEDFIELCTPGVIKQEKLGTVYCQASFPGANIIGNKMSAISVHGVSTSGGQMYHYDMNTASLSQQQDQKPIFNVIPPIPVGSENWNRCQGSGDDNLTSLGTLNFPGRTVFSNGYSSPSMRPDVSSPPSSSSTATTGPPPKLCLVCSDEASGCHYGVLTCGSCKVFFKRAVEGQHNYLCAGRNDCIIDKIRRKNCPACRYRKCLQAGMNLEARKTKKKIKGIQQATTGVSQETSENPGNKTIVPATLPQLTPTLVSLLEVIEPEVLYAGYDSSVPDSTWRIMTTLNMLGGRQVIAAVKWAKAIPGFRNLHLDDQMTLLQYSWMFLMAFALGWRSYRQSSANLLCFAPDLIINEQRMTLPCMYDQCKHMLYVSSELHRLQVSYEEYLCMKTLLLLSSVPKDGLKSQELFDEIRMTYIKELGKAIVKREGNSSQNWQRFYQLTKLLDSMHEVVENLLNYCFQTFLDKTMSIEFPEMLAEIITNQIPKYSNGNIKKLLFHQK
# protocol notes: GR-EFC Redistribution (AID 451); also: potency is read from the fitted curve at half-maximal effect
# measurement context: CHO-K1 GR-EFC translocation, beta-gal luminescence, 2 h
Activity calls are given as the source filed them. Calls follow the shape of the full dose curve.
assay endpoint: Potency

Query: Answer with the recorded Potency for the compound listed here: Cc1ccc(SCN2CCCCC2)cc1 (tested in a mixture with another compound)
Response: > 9.22 µM (inactive)

Query: Answer with the recorded Potency for the compound listed here: `Cn1c(=O)c2[nH]c(SCCN3CCOCC3)nc2n(C)c1=S`
Response: > 9.22 µM (inactive)

Query: Answer with the recorded Potency for the compound listed here: C=C[C@]1(C)C[C@H](OC(=O)CO)[C@]2(C)C3C(=O)CC[C@]3(CC[C@H]2C)[C@H](C)[C@H]1O (stereo partly drawn)
Response: > 9.22 µM (inactive)

Query: Answer with the recorded Potency for the compound listed here: `c1ccc(-c2ccc(-c3ccc(C4=NCCN4)cc3)o2)cc1`
Response: > 9.22 µM (inactive)

Query: Answer with the recorded Potency for the compound listed here: `CC[C@@H](c1ccc2cc(O)ccc2c1)C(C)(C)C(=O)O`
Response: > 9.22 µM (inactive)

Query: Answer with the recorded Potency for the compound listed here: `CN(C)Cc1cc(O)c(O)c(CN(C)C)c1`
Response: > 9.22 µM (inactive)

Query: Answer with the recorded Potency for the compound listed here: `NS(=O)(=O)c1cc2c(cc1Cl)N[C@H](Cc1ccccc1)NS2(=O)=O`
Response: > 9.22 µM (inactive)

Query: Answer with the recorded Potency for the compound listed here: `c1ccc(B2OC[C@@H]3OB(c4ccccc4)O[C@H]([C@@H]4COB(c5ccccc5)O4)[C@@H]3O2)cc1`
Response: > 9.22 µM (inactive)

Query: Answer with the recorded Potency for the compound listed here: `CN(C)CCN(c1ccccn1)c1ccccn1`
Response: > 9.22 µM (inactive)

Query: Answer with the recorded Potency for the compound listed here: `Cc1cccc(CNc2nc(-c3cccnc3)nc3ccccc23)c1`
Response: > 46 µM (inactive)

Query: Answer with the recorded Potency for the compound listed here: `O=C(O)c1cccc(N=Nc2c(S(=O)(=O)O)ccc3c2C(=O)c2ccccc2C3=O)c1O`
Response: > 9.22 µM (inactive)

Query: Answer with the recorded Potency for the compound listed here: `O=C(O)c1ccc(CNCc2ccccc2)cc1`
Response: > 9.22 µM (inactive)

Query: Answer with the recorded Potency for the compound listed here: `O=C(O)c1nnsc1-c1csnn1`
Response: > 9.22 µM (inactive)

Query: Answer with the recorded Potency for the compound listed here: `COc1ncc2nc(-c3cc(F)cc(F)c3)c(=O)n(CCc3ccccc3)c2n1`
Response: > 46 µM (inactive)

Query: Answer with the recorded Potency for the compound listed here: `Cc1sc2ccccc2[n+]1CCC(=O)O`
Response: > 9.22 µM (inactive)

Query: Answer with the recorded Potency for the compound listed here: `COc1ncc2nc(-c3cc(F)cc(F)c3)c(=O)n(C3CC3)c2n1`
Response: > 46 µM (inactive)

Query: Answer with the recorded Potency for the compound listed here: `NC(N)=NC[C@@H]1CCCCCCN1`
Response: > 9.22 µM (inactive)

Query: Answer with the recorded Potency for the compound listed here: `CO[C@@H](NC(N)=O)C(=O)O`
Response: > 9.22 µM (inactive)

Query: Answer with the recorded Potency for the compound listed here: `Cc1cc(C(C)(C)C)c(OCCCN2CCOCC2)c(C(C)(C)C)c1`
Response: > 9.22 µM (inactive)

Query: Answer with the recorded Potency for the compound listed here: `COc1ccc2ccccc2c1/C=C\C(=O)c1ccccc1`
Response: > 9.22 µM (inactive)

Query: Answer with the recorded Potency for the compound listed here: `O=[N+]([O-])c1ccc(C2=Nn3c(nnc3-c3ccc(Cl)cc3)SC2)o1`
Response: > 9.22 µM (inactive)

Query: Answer with the recorded Potency for the compound listed here: `O=c1ccn([C@@H]2O[C@@H](COP(=O)(O)OP(=O)(O)O)[C@H](O)[C@@H]2O)c(=O)[nH]1`
Response: > 46 µM (inactive)

Query: Answer with the recorded Potency for the compound listed here: `COc1ccccc1-c1ccc2ncnc(NCc3cccnc3)c2c1`
Response: > 46 µM (inactive)
